Tested on: MCF-7 (ER+ve breast) cancer cells
Experiment: Sulforhodamine B cytotoxicity, MCF-7
Format: cell-based
Conditions: MCF-7, 24 h
propertyMeasured: IC50 (µM)
# unit: µM | format: bare number

Return IC50 measured with MCF-7 (ER+ve breast) cancer cells given this molecule: "O=c1cc(CCCCCCCC[P+](c2ccccc2)(c2ccccc2)c2ccccc2)c2cc(O)c(O)cc2o1" 4.8

---

System: HeLa (cervical) cancer cells
Assay: Sulforhodamine B cytotoxicity, HeLa
Type: cell-based
Details: 24 h
propertyMeasured: IC50
Kindly write the number and append the unit.

Return IC50 measured with HeLa (cervical) cancer cells given this molecule: "O=c1cc(CCCCCCCC[P+](c2ccccc2)(c2ccccc2)c2ccccc2)c2cc(O)c(O)cc2o1" 4.9 µM

Recorded values, source patent US20240277851A1.
